# EC50 listing for each entry below
# targetDesc: GST tagged LXRbeta LBD (ligand binding domain) (Homo sapiens, UniProt P55055)
# Sequence (P55055 222-460 limits assumed): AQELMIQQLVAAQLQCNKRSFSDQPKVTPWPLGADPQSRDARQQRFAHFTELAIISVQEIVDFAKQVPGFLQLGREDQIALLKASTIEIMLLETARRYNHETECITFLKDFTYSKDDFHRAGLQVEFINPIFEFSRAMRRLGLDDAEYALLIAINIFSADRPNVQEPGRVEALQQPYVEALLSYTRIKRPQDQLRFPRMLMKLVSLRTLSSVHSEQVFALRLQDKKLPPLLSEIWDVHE
# assay: LanthaScreen TR-FRET Liver X Receptor Coactivator Assay, LXR beta-LBD (co-activator recruitment; IP and % Emax relative to T0901317)
# measurementConditions: Inflection Point of co-activator recruitment, LXR beta-LBD, TR-FRET
Numbers only here, please. The scale is µM.

# example entries with known answers
molecule: COc1cccc([C@@](O)(C(=O)N(C)CCCC2CCN(c3ccc(C(=O)N(C)CCO)c(Cl)n3)CC2)C(F)(F)F)c1
EC50 / µM: 0.028

molecule: CN(C)C(=O)c1ccc(N2CCC(CCCN(C)C(=O)C(O)(c3ccccc3)C(F)(F)F)CC2)cc1Cl (single isomer, unassigned) [Example 4-6]
EC50 / µM: 0.077

molecule: CC(C)Oc1cccc(C(O)(C(=O)N(C)CCCC2CCN(c3ccc(C(=O)N(C)C)c(Cl)n3)CC2)C(F)(F)F)c1 (stereo not shown)
EC50 / µM: 0.095

Now take the following molecule into account.
Entry COc1cccc([C@@](O)(C(=O)N(C)CCCC2CCN(c3cc(Cl)c(C(=O)N(C)C)cn3)CC2)C(F)(F)F)c1 has what EC50?
1.91

----------
# Emax listing for each entry below
# targetDesc: GST tagged LXRbeta LBD (ligand binding domain) (Homo sapiens, UniProt P55055)
# Construct: purchased Invitrogen pv4658.pps
# assay: LanthaScreen TR-FRET Liver X Receptor Coactivator Assay, LXR beta-LBD (co-activator recruitment; IP and % Emax relative to T0901317)
# Format: biochemical
# measurementConditions: efficacy at max dose in relation to reference T0901317, LXR beta-LBD; read-out: LXR beta actiivty at max dose (%)
# Excerpt: […]
Numbers only here, please. The scale is %.

compound: COc1cccc([C@@](O)(C(=O)N(C)CC[C@@H]2CC23CCN(c2ccc(C(=O)N(C)C)c(Cl)c2)CC3)C(F)(F)F)c1
targetDesc: GST tagged LXRbeta LBD (ligand binding domain) (Homo sapiens, UniProt P55055)
unitsLabel: %
Emax: 43
//
compound: CN(C)C(=O)c1ccc(N2CCC(CCCN(C)C(=O)[C@](O)(c3ccccc3)C3CC3)CC2)nc1Cl
targetDesc: GST tagged LXRbeta LBD (ligand binding domain) (Homo sapiens, UniProt P55055)
unitsLabel: %
Emax: 59
//
compound: CN(C)C(=O)c1ccc(N2CCC(CCCN(C)C(=O)C(O)(c3cccc(O)c3)C(F)(F)F)CC2)nc1Cl (stereo not shown)
targetDesc: GST tagged LXRbeta LBD (ligand binding domain) (Homo sapiens, UniProt P55055)
unitsLabel: %
Emax: 82
//
compound: CN(C)C(=O)c1ccc(N2CCC(F)(CCCN(C)C(=O)[C@](O)(c3ccccc3)C(F)(F)F)CC2)nc1Cl
targetDesc: GST tagged LXRbeta LBD (ligand binding domain) (Homo sapiens, UniProt P55055)
unitsLabel: %
Emax: 46
//
compound: CNC(=O)c1ccc(N2CCC3(CC2)CC(CCN(C)C(=O)[C@](O)(c2cccc(OC)c2)C(F)(F)F)C3)nc1Cl
targetDesc: GST tagged LXRbeta LBD (ligand binding domain) (Homo sapiens, UniProt P55055)
unitsLabel: %
Emax: 49
//
compound: CCOc1cccc([C@@](O)(C(=O)N(C)C[C@@H]2C[C@@H]2C2CCN(c3ccc(C(=O)N(C)C)c(Cl)n3)CC2)C(F)(F)F)c1
targetDesc: GST tagged LXRbeta LBD (ligand binding domain) (Homo sapiens, UniProt P55055)
unitsLabel: %
Emax: 66

Now take the following compound into account.
Entry COc1cccc([C@@](O)(C(=O)N(C)CC[C@H]2CC23CCN(c2ccc(C(=O)NC4CC4)c(Cl)n2)CC3)C(F)(F)F)c1 has what Emax?
54
